B1: r16_88_TrROS_Hall (parent)
chain: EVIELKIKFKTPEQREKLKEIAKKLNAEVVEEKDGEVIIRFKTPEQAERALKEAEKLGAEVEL

Variants of: B1
Experiment: folding stability dG (cDNA display proteolysis); higher = more stable
Details: PBS, room temperature
// reported folding stability dG for each item listed
property_label: folding stability dG (kcal/mol)

> print(dat)
    variant.name  measurement.units  value.reported
 1          K52T           kcal/mol            4.23
 2          L18W           kcal/mol            4.54
 3          E62A           kcal/mol             4.5
 4           E1N           kcal/mol            4.33
 5          F41A           kcal/mol            4.49
 6          K24S           kcal/mol            4.47
 7          P12H           kcal/mol            4.59
 8          G35D           kcal/mol             4.1
 9          L18G           kcal/mol            3.83
10          A27C           kcal/mol            4.25
11          E53D           kcal/mol            4.34
12          K10P           kcal/mol             4.2
13          I39G           kcal/mol            3.23
14          L63W           kcal/mol            4.73
15          P12S           kcal/mol            4.44
16          N26E           kcal/mol            4.09
17           I7P           kcal/mol             2.3
18          L25P           kcal/mol            3.67
19          R15S           kcal/mol            4.17
20           I3K           kcal/mol            4.76
21          E60W           kcal/mol            4.01
22          A59L           kcal/mol            4.62
23          L51K           kcal/mol            4.61
24          V30Y           kcal/mol            4.42
25          V61W           kcal/mol            3.96
26           E1I           kcal/mol            4.29
27           F9E           kcal/mol            2.48
28          K42S           kcal/mol            4.23
29           I7Q           kcal/mol            3.21
30           E4W           kcal/mol            4.66
31           I7W           kcal/mol            4.97
32          K19V           kcal/mol            4.14
33          P12L           kcal/mol            4.31
34          E62M           kcal/mol            4.24
35          L25D           kcal/mol            4.31
36          A47E           kcal/mol            4.18
37          E16S           kcal/mol            4.44
38          E48R           kcal/mol            4.25
39          N26F           kcal/mol            4.24
40          E16M           kcal/mol             4.6
41           I3D           kcal/mol            4.52
42          E55M           kcal/mol            4.37
43          V29S           kcal/mol            4.32
44           I7R           kcal/mol            3.04
45          E48C           kcal/mol            4.52
46          E36G           kcal/mol            4.39
